Assay: CNS penetration: total and unbound drug concentrations in tumor regions, CSF and plasma (LC-MS/MS, equilibrium dialysis)
Settings: human, non-enhancing tumor, oral, Unbound Ribociclib concentration, Maximum, 400 mg QD 5 days
readout.label: concentration at 5 days (nM)
The reply should contain only the number, in nM.

Query: concentration at 5 days; subject: `CN(C)C(=O)c1cc2cnc(Nc3ccc(N4CCNCC4)cn3)nc2n1C1CCCC1`
1770

---

Test: Plasma pharmacokinetic parameters (LC-MS/MS)
Settings: human, plasma, oral, 400 mg, Unbound Ribociclib T1/2, plasma, Mean
Description: Pharmacokinetic evaluation was conducted as previously described[8] using a validated liquid chromatography with tandem mass spectrometry (LC-MS/MS) method.[16] […] CSF samples were intraoperatively collected.
readout.label: half-life (h)
The reply should contain only the number, in h.

Query: half-life; subject: CN(C)C(=O)c1cc2cnc(Nc3ccc(N4CCNCC4)cn3)nc2n1C1CCCC1 [Ribociclib, ribociclib]
11.3

---

Test: CNS penetration: total and unbound drug concentrations in tumor regions, CSF and plasma (LC-MS/MS, equilibrium dialysis)
Conditions: human, non-enhancing tumor, oral, Total everolimus, MAX, 70 mg single dose
readout.label: concentration at 5 days (nM)
The reply should contain only the number, in nM.

Query: concentration at 5 days; subject: `CO[C@H]1C[C@@H]2CC[C@@H](C)[C@@](O)(O2)C(=O)C(=O)N2CCCC[C@H]2C(=O)O[C@H]([C@H](C)C[C@@H]2CC[C@@H](OCCO)[C@H](OC)C2)CC(=O)[C@H](C)/C=C(\C)[C@@H](O)[C@@H](OC)C(=O)[C@H](C)C[C@H](C)/C=C/C=C/C=C/1C`
78.2

---

Experiment: CNS penetration: total and unbound drug concentrations in tumor regions, CSF and plasma (LC-MS/MS, equilibrium dialysis);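 note: drug levels in patient tumor tissue from contrast-enhancing and non-enhancing regions sampled under MRI-guided neuronavigation, with plasma and CSF drawn during surgical resection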
Conditions: human, non-enhancing tumor, oral, Total everolimus, MED, 10 mg QD 5 days
readout.label: concentration at 5 days

Query: concentration at 5 days; subject: `CO[C@H]1C[C@@H]2CC[C@@H](C)[C@@](O)(O2)C(=O)C(=O)N2CCCC[C@H]2C(=O)O[C@H]([C@H](C)C[C@@H]2CC[C@@H](OCCO)[C@H](OC)C2)CC(=O)[C@H](C)/C=C(\C)[C@@H](O)[C@@H](OC)C(=O)[C@H](C)C[C@H](C)/C=C/C=C/C=C/1C`
5 nM

---

Test: Plasma pharmacokinetic parameters (LC-MS/MS)
Details: human, plasma, oral, 70 mg, Tmax, total everolimus plasma; mean
Protocol: Pharmacokinetic evaluation was conducted as previously described[8] using a validated liquid chromatography with tandem mass spectrometry (LC-MS/MS) method.[16] […] CSF samples were intraoperatively collected.
readout.label: Tmax (h)
The reply should contain only the number, in h.

Query: Tmax; subject: `CO[C@H]1C[C@@H]2CC[C@@H](C)[C@@](O)(O2)C(=O)C(=O)N2CCCC[C@H]2C(=O)O[C@H]([C@H](C)C[C@@H]2CC[C@@H](OCCO)[C@H](OC)C2)CC(=O)[C@H](C)/C=C(\C)[C@@H](O)[C@@H](OC)C(=O)[C@H](C)C[C@H](C)/C=C/C=C/C=C/1C`
4.25

---

Test: Plasma pharmacokinetic parameters (LC-MS/MS)
Conditions: human, plasma, oral, 5 mg, T1/2, total everolimus plasma; median
readout.label: half-life (h)
The reply should contain only the number, in h.

Query: half-life; subject: `CO[C@H]1C[C@@H]2CC[C@@H](C)[C@@](O)(O2)C(=O)C(=O)N2CCCC[C@H]2C(=O)O[C@H]([C@H](C)C[C@@H]2CC[C@@H](OCCO)[C@H](OC)C2)CC(=O)[C@H](C)/C=C(\C)[C@@H](O)[C@@H](OC)C(=O)[C@H](C)C[C@H](C)/C=C/C=C/C=C/1C`
18.8
